Source of measurements: PubChem BioAssay AID1220

# Tested on: Mannose-6-phosphate isomerase (Homo sapiens)
# Method notes: MPI inhibition at elevated mannose 6-phosphate – biochemical, fluorescence intensity, high mannose 6-phosphate, primary screen (AID 1220)
# Condition set: recombinant PMI enzyme, coupled fluorescence intensity; at 20 µM; active compounds read high
The whole screen tested about 190,000 compounds, of which about 1,300 (0.68%) were called active. Shown is part of a subset that was picked to be rich in actives.
Assay metric: inhibition (%)

1. CCN(C(=O)CSc1nnc(-c2c[nH]c3ccccc23)o1)C1CCS(=O)(=O)C1 (stereo not given) :: 4.2
2. CC(=O)c1ccc(Oc2nc(-c3cccnc3)nc3ccccc23)cc1 :: -4.3
3. CCN(C(=O)CN1CCN(c2ccccc2)CC1)c1c(N)n(Cc2ccccc2)c(=O)[nH]c1=O :: 7.8
4. CCN(C(=O)CN1CCN(c2ccc(O)cc2)CC1)c1c(N)n(Cc2ccccc2)c(=O)[nH]c1=O :: 51.6
5. O=[N+]([O-])c1ncccc1Oc1nc(-c2cccnc2)nc2ccccc12 :: 65.8

----------
# Tested on: Mannose-6-phosphate isomerase (Homo sapiens) (UniProt P34949)
# Sequence (P34949 whole entry, looked up): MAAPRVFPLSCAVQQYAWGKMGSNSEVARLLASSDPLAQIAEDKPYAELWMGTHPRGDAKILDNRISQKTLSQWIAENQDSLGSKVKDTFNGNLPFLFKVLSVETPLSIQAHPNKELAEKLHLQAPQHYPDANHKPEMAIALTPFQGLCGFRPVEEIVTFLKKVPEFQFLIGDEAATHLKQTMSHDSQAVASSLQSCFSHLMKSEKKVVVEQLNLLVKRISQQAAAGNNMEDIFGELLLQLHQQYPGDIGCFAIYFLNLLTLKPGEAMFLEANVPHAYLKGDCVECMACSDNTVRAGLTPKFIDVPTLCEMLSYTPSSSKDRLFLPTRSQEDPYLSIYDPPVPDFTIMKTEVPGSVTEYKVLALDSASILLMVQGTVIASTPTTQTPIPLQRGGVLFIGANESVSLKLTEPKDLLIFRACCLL
# Method notes: MPI inhibition at elevated mannose 6-phosphate – biochemical, fluorescence intensity, high mannose 6-phosphate, primary screen (AID 1220)
# Condition set: recombinant PMI enzyme, coupled fluorescence intensity; at 20 µM
About 1,300 (0.68%) of roughly 190,000 compounds were called active. Cut-off read from the data, not from the text of the source: active = inhibition above about 50%; inactive = the rest. The full list was thinned out, with actives kept by preference.
Classes used: 1 (yes) for active, 0 (no) for inactive

1. Cc1ccc(N2C(N)=C(C#N)C(c3cccs3)C3=C2CC(C)(C)CC3=O)cc1 (centres undefined) :: 0 (no)
2. CC1=C(C)/C(=N/OC(=O)c2cccc([N+](=O)[O-])c2)C=CC1=O :: 0 (no)
3. COC(=O)C1C(=O)c2c([nH]c(C(=O)OC3CCCC3C)c2C)CC1C (centres undefined) :: 0 (no)
4. Cc1cc(-c2ccco2)n(-c2ccccc2)n1 :: 1 (yes)
5. O=C1CN(CC(=O)Nc2cccc(Cl)c2Cl)c2ccccc2N1 :: 0 (no)
6. CN(C)c1nc(OCCNC(=O)Nc2ccc(Cl)cc2)nc(N(C)C)n1 :: 0 (no)
7. CCN(CC)c1ccc(C=Nc2cc(C)ccc2C)c(O)c1 :: 1 (yes)
8. COc1cc(C(=O)O/N=C2/C=CC(=O)C(C)=C2C)cc(OC)c1OC :: 1 (yes)
9. CC1CCN(C(c2ccccc2)c2nnnn2C(C)(C)C)CC1 (centres undefined) :: 0 (no)
10. COc1cc(C(=O)ON=C2C(C)=CC(=O)C=C2C)cc(OC)c1OC :: 1 (yes)
11. O=C(COC(=O)CCc1ccccc1)Nc1cc(S(=O)(=O)N2CCOCC2)ccc1N1CCCC1 :: 0 (no)
12. O=C(/C=C/c1ccc(Br)o1)NCCCN1CCOCC1 :: 0 (no)
13. Cc1cccc(OCC(=O)OCC(=O)c2c(N)n(C)c(=O)n(C)c2=O)c1C :: 0 (no)
14. CCN(CC)c1ccc(C=Nc2ccccc2C)c(O)c1 :: 1 (yes)
15. Cc1cc(NC(=O)c2cc(-c3ccco3)on2)n(-c2ccccc2)n1 :: 0 (no)
16. CN1c2ccccc2N(C)C1(C)c1ccccc1 :: 0 (no)
17. COc1cc(C(=O)ON=C2C=C(C)C(=O)C(C)=C2)cc(OC)c1OC :: 1 (yes)
18. O=[N+]([O-])c1cc2oc3c(c2c(C=NCc2ccccc2)c1O)CCCC3 :: 1 (yes)
19. CSc1sc(C)cc1C1C(C#N)=C(N)N(c2cccnc2)C2=C1C(=O)CCC2 (centres undefined) :: 0 (no)
20. Cn1c(-c2ccccc2)c(C(=O)CCl)c2ccccc21 :: 0 (no)
21. O=C(O)c1cc(-c2ccccc2)n(-c2ccc(Cl)cc2)n1 :: 0 (no)
22. COc1ccccc1Sc1nc(-c2ccccn2)ncc1OC :: 0 (no)
23. COc1cc(/C=N/NC(=O)[C@H](Cc2c[nH]c3ccccc23)NC(=O)OCC(C)C)cc([N+](=O)[O-])c1O :: 0 (no)
24. CCN(CC)c1ccc(/C=N/NC(=S)NCc2ccccc2)c(O)c1 :: 0 (no)
25. O=c1c2cc(Br)ccc2nc(-c2ccc([N+](=O)[O-])cc2)n1O :: 0 (no)
26. Cc1ccc(NC(=O)c2ccco2)c(NC(=O)C2CCCO2)c1 (centres undefined) :: 0 (no)
27. Oc1c(Br)cc2oc3c(c2c1CNCc1ccccc1)CCCC3 :: 0 (no)
28. COc1cc(C(=O)O/N=C(\N)c2ccncc2)cc(OC)c1OC :: 0 (no)
29. CCCCc1nnc(NC(=O)C(C)Sc2nc(N)cc(=O)[nH]2)s1 (centres undefined) :: 0 (no)
30. CCCCOC(=O)c1ccc(Nc2ccc([N+](=O)[O-])cn2)cc1 :: 0 (no)
31. CCN(CC)c1ccc(/C=N/Nc2ccc(C)cc2)c(O)c1 :: 0 (no)
32. O=C(c1cnn(-c2ccccc2)c1)c1ccc2ccccc2c1O :: 0 (no)
33. O=c1c2c([N+](=O)[O-])cc([N+](=O)[O-])cc2sn1-c1ccc(Br)cc1 :: 1 (yes)
34. CC1(C)CC(=O)C2=C(C1)N(c1ccc(F)cc1)C(N)=C(C#N)C2c1cccs1 (centres undefined) :: 0 (no)
35. CC1=CC(=NOC(=O)c2cccc([N+](=O)[O-])c2)C=C(C)C1=O :: 0 (no)
36. COc1cc(/C=N/NC(=O)C(Cc2c[nH]c3ccccc23)NC(=O)OCC(C)C)cc([N+](=O)[O-])c1OCc1ccccc1 (centres undefined) :: 1 (yes)
37. CCOC(=O)c1ccc(S(=O)(=O)Nc2ccc3cn[nH]c3c2)cc1 :: 0 (no)
38. Cc1ccccc1CSCC(=O)c1c(N)n(C)c(=O)n(C)c1=O :: 0 (no)
39. Cc1cc(-c2ccco2)n(CC(=O)O)n1 :: 0 (no)
40. O=c1n(-c2ccc(Br)cc2)cnn1-c1ncccc1[N+](=O)[O-] :: 0 (no)
41. CCc1ccc(NC(=S)N2CCCCCCC2)cc1 :: 0 (no)
42. Cc1nn(C)cc1C1C(C#N)=C(N)N(c2cccnc2)C2=C1C(=O)CCC2 (centres undefined) :: 0 (no)
43. COc1cc(C(=O)Oc2cc(C)cc(C)c2)cc(OC)c1OC :: 0 (no)
44. Cc1ccc(S(=O)(=O)N(C(=O)c2ccncc2)c2ccc3oc4c(c3c2)CCCC4)cc1[N+](=O)[O-] :: 0 (no)

----------
Attribute: inhibition
# Tested on: Mannose-6-phosphate isomerase (Homo sapiens)
# Method notes: MPI inhibition at elevated mannose 6-phosphate – biochemical, fluorescence intensity, high mannose 6-phosphate, primary screen (AID 1220)
# Condition set: recombinant PMI enzyme, coupled fluorescence intensity; at 20 µM; active compounds read high
The campaign covered roughly 190,000 compounds. About 1,300 (0.68%) were called active. Only a selection was taken, and actives are over-represented in it overall.
Assay metric: inhibition (%)

1) O=C1/C(=C\c2ccco2)SC(=S)N1c1ccccc1 :: 51.3
2) O=C1/C(=C\c2ccco2)SC(=S)N1c1ccc(O)cc1 :: 39.1
3) O=C(CC1Nc2cccc3cccc(c23)NC1=O)Nc1ccc(F)cc1 (stereo unspecified) :: 54
4) O=C(CC1Nc2cccc3cccc(c23)NC1=O)Nc1ccccc1 (stereo unspecified) :: 39
5) CC(=O)Nc1ccc(NC(=O)CC2Nc3cccc4cccc(c34)NC2=O)cc1 (stereo unspecified) :: -5.1
6) COc1ccc(NC(=O)CCCN2C(=O)/C(=C\c3ccco3)SC2=S)cc1 :: 13.4

----------
# Tested on: Mannose-6-phosphate isomerase (Homo sapiens)
# Method notes: MPI inhibition at elevated mannose 6-phosphate – biochemical, fluorescence intensity, high mannose 6-phosphate, primary screen (AID 1220)
# Condition set: recombinant PMI enzyme, coupled fluorescence intensity; at 20 µM
The campaign covered roughly 190,000 compounds. About 1,300 (0.68%) were called active. Rule as the data show it: active = inhibition above about 50%; inactive = the rest. For the sample, actives were picked, then their nearest neighbours and some compounds at random.
Outcomes: Yes for active, No for inactive

1. Cc1nc2sc(C(c3ccccc3)N3CCOCC3)c(O)n2n1 (stereo unspecified) :: No
2. CCOC(=O)c1c(-c2ccncc2)csc1N :: No
3. CCOC(=O)c1c(-c2cccc([N+](=O)[O-])c2)csc1N :: Yes
4. CCOC(=O)c1c(-c2ccc(C)s2)csc1NC(=O)c1ccco1 :: No
5. CCOC(=O)c1c(-c2ccsc2)csc1N :: Yes
6. CCOC(=O)c1c(-c2cccc([N+](=O)[O-])c2)csc1NC(=O)C1CC1 :: No

----------
# Tested on: Mannose-6-phosphate isomerase (Homo sapiens) (UniProt P34949)
# Method notes: MPI inhibition at elevated mannose 6-phosphate – biochemical, fluorescence intensity, high mannose 6-phosphate, primary screen (AID 1220)
# Condition set: recombinant PMI enzyme, coupled fluorescence intensity; at 20 µM
About 1,300 (0.68%) of roughly 190,000 compounds were called active. Rule as the data show it: active = inhibition above about 50%; inactive = the rest. This is one part of a sample in which actives are shown more often than they occur.
Classes used: active, inactive

1. O=C1C2C3C=CC(C3)C2C(=O)N1CNc1ccccc1 (centres undefined) :: inactive
2. Oc1c(CN2CCc3ccccc3C2)cc(Cl)c2cccnc12 :: inactive
3. CCn1c(COc2ccc3c(c2)OCO3)nnc1SCC(=O)O :: inactive
4. O=C(Cn1nnc(-c2ccccc2F)n1)Nc1cccc2ncccc12 :: inactive
5. Cc1ccc(S(=O)(=O)O/N=C2\CCCc3ccccc32)cc1 :: inactive
6. COc1ccc(NC(=S)Nc2ccc3snnc3c2)cc1 :: active
7. Cc1nn(CC(=O)Nc2sc3c(c2C#N)CCC(C(C)(C)C)C3)c(C)c1[N+](=O)[O-] (centres undefined) :: inactive
8. Clc1cccc(CN2COc3c(cc(Cl)c4cccnc34)C2)c1 :: active
9. COc1ccc(NC(=O)c2ccc3snnc3c2)cc1 :: inactive
